Target: human ether-à-go-go-related gene (hERG) potassium channel (human, UniProt Q12809);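 further: peak tail current of the secondary pulse compared with the same well before compound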
Sequence (Q12809 whole entry, looked up): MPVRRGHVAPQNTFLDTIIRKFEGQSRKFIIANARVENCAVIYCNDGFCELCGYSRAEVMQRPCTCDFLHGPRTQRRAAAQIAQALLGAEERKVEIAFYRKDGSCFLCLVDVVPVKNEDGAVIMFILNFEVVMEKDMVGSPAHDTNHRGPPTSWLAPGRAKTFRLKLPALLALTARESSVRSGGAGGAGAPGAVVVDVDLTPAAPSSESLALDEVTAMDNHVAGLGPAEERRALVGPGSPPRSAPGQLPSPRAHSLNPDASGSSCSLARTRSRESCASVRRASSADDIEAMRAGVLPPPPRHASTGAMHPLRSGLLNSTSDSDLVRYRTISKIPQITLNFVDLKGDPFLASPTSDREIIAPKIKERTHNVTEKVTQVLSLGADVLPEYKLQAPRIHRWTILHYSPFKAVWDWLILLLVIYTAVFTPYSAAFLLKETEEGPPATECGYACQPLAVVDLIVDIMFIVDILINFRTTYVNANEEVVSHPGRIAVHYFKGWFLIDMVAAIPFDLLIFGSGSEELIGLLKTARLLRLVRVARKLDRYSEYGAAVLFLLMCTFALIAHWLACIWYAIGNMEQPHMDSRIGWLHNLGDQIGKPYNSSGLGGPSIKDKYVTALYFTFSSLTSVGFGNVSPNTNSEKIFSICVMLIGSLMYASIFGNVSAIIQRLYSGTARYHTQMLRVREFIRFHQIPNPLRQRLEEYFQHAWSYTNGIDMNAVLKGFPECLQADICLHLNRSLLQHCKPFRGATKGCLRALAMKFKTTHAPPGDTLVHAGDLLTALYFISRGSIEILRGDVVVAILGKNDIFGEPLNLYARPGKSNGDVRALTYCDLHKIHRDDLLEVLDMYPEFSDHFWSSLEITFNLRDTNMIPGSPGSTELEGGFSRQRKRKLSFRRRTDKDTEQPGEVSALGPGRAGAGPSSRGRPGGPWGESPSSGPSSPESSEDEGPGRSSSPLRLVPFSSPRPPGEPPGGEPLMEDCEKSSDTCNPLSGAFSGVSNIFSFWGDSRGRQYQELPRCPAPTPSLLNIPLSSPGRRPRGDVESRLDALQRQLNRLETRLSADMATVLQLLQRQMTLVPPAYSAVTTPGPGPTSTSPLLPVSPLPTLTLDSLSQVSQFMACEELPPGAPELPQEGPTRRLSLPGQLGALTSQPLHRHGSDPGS
Assay: primary screen, population patch clamp on CHO cells stably expressing hERG; higher = less effect of the substance
In all, about 310,000 compounds went through this assay and about 14,000 (4.5%) showed an effect of 50% or more. The effect is printed as a negative number. The list comes from a sample in which strong results are over-represented; it also holds close analogues and randomly drawn compounds.
result-type: hERG current change (%, negative = inhibition) at 10uM (%)
Form entry: value (%) — number only.

As a guide, the following entries are already answered.
COc1ccc(OC)c(S(=O)(=O)n2ccnc2C)c1 = 0.0552
CN(C)Cc1c(O)ccc2cc(-c3nc4ccccc4n3C)c(=O)oc12 = 10.2
COc1cccc(-c2cnc(OC(C)(C)C)nc2OC(C)(C)C)c1 = 14.7
O=S(=O)(Nc1nc2ccccc2s1)c1ccc(Br)s1 = -5.3

Could you now look at the following compound, please?
Recorded hERG current change (%, negative = inhibition) at 10uM for COc1ccc(/C=N\NC(=O)COc2ccccc2Cl)cc1Cn1nc(C)cc1C with human ether-à-go-go-related gene (hERG) potassium channel (human, UniProt Q12809), please?
8.15

---

Molecular target: human ether-à-go-go-related gene (hERG) potassium channel (human);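 further: peak tail current of the secondary pulse compared with the same well before compound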
Test: primary screen, population patch clamp on CHO cells stably expressing hERG; higher = less effect of the substance
Among all 310,000 compounds or so, about 14,000 (4.5%) showed an effect of 50% or more. The effect is printed as a negative number. The sample holds strong results, similar compounds and a random draw of the others, so the mix is not that of the screen.
Overview of recorded hERG current change (%, negative = inhibition) at 10uM for various molecules
Record the value in %, omitting the unit from your answer.

Observe how each entry below is paired with its result.
Cc1cc(C)cc(NC(=O)CSc2ccc(-c3ccco3)nn2)c1 = -28.8
CC(=O)c1cccc(NC(=O)CSc2ccc(-c3ccco3)nn2)c1 = 1.79
O=C(C1CCCO1)N1CCN(C(c2ccccc2)c2ccccc2)CC1 (centres unmarked) = 0.514

Look at this molecule and give its reported hERG current change (%, negative = inhibition) at 10uM. O=C(CSc1ccc(-c2ccco2)nn1)c1ccccc1
-9.74

Then this molecule: O=C(CSc1ccc(-c2cccs2)nn1)Nc1ccccc1
-35

---

Biological target: human ether-à-go-go-related gene (hERG) potassium channel (human, UniProt Q12809);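 further: peak tail current of the secondary pulse compared with the same well before compound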
Test: primary screen, population patch clamp on CHO cells stably expressing hERG; higher = less effect of the substance
Description: Briefly, Chinese hamster ovary (CHO) cells stably expressing the hERG channel were dislodged from tissue culture flasks and dispensed into PPC plates. […] During the recording, background leak currents were estimated by a 100 ms step to -80 mV from an initial holding potential of -70 mV and subtracted from the subsequent current measurement. The campaign was conducted in two phases using slight differences in recording protocol. […]
About 14,000 (4.5%) of roughly 310,000 compounds showed an effect of 50% or more. The effect is printed as a negative number. The list comes from a sample in which strong results are over-represented; it also holds close analogues and randomly drawn compounds.
Overview of reported hERG current change (%, negative = inhibition) at 10uM across a group of compounds:
Numbers only; they are read as %.

CCS(=O)(=O)Nc1cccc(-c2ccc3nnc(-c4cccnc4)n3n2)c1 = -4.03
O=C(/C=C\c1ccco1)Nc1ccc(N2CCN(C(=O)c3ccccc3)CC2)cc1 = -55.7
O=C(NC1CCCCC1)c1ccc(S(=O)(=O)NCc2cccnc2)cc1 = 5.88
CCOc1cc(CNCC(C)C)c(Cl)cc1OCC(=O)Nc1ccccc1 = -15.2
O=C(COc1ccc(Br)cc1CO)Nc1ccccc1 = -10.4

Which measured hERG current change (%, negative = inhibition) at 10uM value corresponds to CCSc1sccc1C1C(C#N)=C(N)N(c2cccnc2)C2=C1C(=O)CCC2 (stereo not drawn) ?
-31.5

Note, next up: CCCc1ccc(-c2cc(C(=O)NN3CCOCC3)c3ccccc3n2)cc1
-3.8

Try this compound too: COCCNS(=O)(=O)c1cccc2cccnc12
11.6

And what about the compound O=C(O)Cc1nc2nc3c(c(=O)n2[nH]1)CCCC3 ?
16.3

And what about the compound CCCNCc1cc(OCC)c(OCC(=O)Nc2ccccc2)cc1Br ?
-24.7

Same question, Cl.O=C(COc1ccc(Br)cc1CNC1CCCC1)Nc1ccccc1 this time
-73.1

COc1ccc(Br)cc1CN(C)CC(=O)NCCc1ccccc1.O=C(O)C(=O)O , same question.
-14.7
